# target entity: T1, biotinylated hBLyS-ECD (human, UniProt Q9Y275 134-285, biotinylated with Biotin-X-X-NHS (molar ratio 7:1); sites not stated)
# T1 construct: also called biotinylated immunogen; biotinylated hBLvS-ECD
# T1 sequence (Q9Y275 134-285): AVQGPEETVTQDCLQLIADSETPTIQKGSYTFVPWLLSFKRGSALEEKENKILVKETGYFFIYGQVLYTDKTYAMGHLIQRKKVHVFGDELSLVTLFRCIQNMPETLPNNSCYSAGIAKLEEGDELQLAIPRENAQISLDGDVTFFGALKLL
# protocol description: ELISA on captured biotinylated hBLyS-ECD; antibody 0 nM (background)
readout name: OD450 nm

{"binder": "c97A3C2H4 (antibody, V domains shown, also called chimeric antibody c97A3C2H4) VH: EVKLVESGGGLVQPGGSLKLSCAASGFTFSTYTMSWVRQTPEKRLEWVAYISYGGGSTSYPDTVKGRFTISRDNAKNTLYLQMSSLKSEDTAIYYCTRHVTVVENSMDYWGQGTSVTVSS VL: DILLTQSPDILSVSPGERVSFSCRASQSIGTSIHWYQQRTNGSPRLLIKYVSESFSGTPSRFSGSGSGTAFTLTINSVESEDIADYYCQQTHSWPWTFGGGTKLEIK", "result value": "0.165 OD450 nm"}
{"binder": "h8E7D9C7F5-1 (antibody, V domains shown, Humanized antibody; also called humanized BLyS antibody h8E7D9C7F5 variant 1 (VH.1 / Vk.1)) VH: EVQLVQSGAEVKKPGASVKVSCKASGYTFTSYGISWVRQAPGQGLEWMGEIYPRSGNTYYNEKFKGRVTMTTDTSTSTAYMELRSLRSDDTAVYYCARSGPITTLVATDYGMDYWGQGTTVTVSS VL: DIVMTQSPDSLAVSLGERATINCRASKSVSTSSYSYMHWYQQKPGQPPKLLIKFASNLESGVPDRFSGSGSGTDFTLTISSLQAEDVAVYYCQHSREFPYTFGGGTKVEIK", "result value": "0.129 OD450 nm"}
{"binder": "h97A3C2H4-9 (antibody, V domains shown, Humanized antibody; VH3-7/JH6 CDR-grafted with A93T, G44R; also called humanized BLyS antibody h97A3C2H4 variant 9 (VH.1b / Vk.1d)) VH: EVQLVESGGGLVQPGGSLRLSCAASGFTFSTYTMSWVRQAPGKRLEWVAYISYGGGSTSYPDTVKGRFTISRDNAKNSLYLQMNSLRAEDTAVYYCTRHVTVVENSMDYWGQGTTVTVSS VL: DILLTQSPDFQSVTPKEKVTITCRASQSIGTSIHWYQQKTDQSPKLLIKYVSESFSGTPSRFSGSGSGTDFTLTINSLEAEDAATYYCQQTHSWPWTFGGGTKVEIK", "result value": "0.198 OD450 nm"}
{"binder": "c8E7D9C7F5 (antibody, V domains shown, also called chimeric antibody c8E7D9C7F5) VH: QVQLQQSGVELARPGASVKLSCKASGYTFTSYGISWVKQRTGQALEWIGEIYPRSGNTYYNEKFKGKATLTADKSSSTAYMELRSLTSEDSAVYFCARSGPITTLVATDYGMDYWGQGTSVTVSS VL: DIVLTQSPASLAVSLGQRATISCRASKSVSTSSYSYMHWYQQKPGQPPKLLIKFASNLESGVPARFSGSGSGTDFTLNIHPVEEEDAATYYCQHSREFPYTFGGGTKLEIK", "result value": "0.322 OD450 nm"}
